Data origin: PubChem BioAssay (NCI)

# System: NCI-H522 lung
# assay.info: NCI-60 one-dose screen, 48 h
# condition.summary: 10 µM unless noted
# Procedure: Growth inhibition of the NCI-H522 human Non-Small Cell Lung tumor cell line is measured as a screen for anti-cancer activity. Cells are grown in 96 well plates and exposed to the test compound for 48 hours. Compounds are tested at a single concentration, which is 10^-5 M for most compounds. The reported endpoint is percent growth (GI% or GIPRCNT), where numbers from 0 - 100% represent growth inhibition, and numbers from -100% - 0 represent cell death. […]
About 83,000 compounds went through this panel and 20% of them were active in at least one assay; those are over-represented in the sample as a whole. The source made the active and inactive calls. How the source made its calls: active means growth percent below 10; inactive means the rest.
The categories you may choose from are active, inactive

See these solved cases before continuing.
O=C(O)c1cccc([N+](=O)[O-])c1/C=C/c1ccccc1 = inactive
CC(C)(C)c1cc(-c2nc3ccc(N4CCN(CCO)CC4)cc3[nH]2)cc(C(C)(C)C)c1O = inactive
CC(C)C[C@H](NC(=O)[C@@H](Cc1ccccc1)n1ccc(Nc2ccccc2)cc1=O)B(O)O = active

For this molecule, state the assay outcome: COc1cc(C2C=C(C)N=C3SC=C(C)N32)cc(OC)c1OC (stereo not given)
active

For this molecule, state the assay outcome: `CC(C)N(Cc1ccc(CN(C(=O)CCl)C(C)C)cc1)C(=O)CCl`
active

---

# System: HS 578T breast
# assay.info: NCI-60 one-dose screen, 48 h (100 = growth as untreated, 0 = no growth, -100 = all killed)
# condition.summary: 10 µM unless noted
# Procedure: Growth inhibition of the HS 578T human tumor cell line is measured as a screen for anti-cancer activity. Cells are grown in 96 well plates and exposed to the test compound for 48 hours. Compounds are tested at a single concentration, which is 10^-5 M for most compounds. The reported endpoint is percent growth (GI% or GIPRCNT), where numbers from 0 - 100% represent growth inhibition, and numbers from -100% - 0 represent cell death. For example, a value of 40 represents 60% growth inhibition. […]
About 83,000 compounds went through this panel and 20% of them were active in at least one assay; those are over-represented in the sample as a whole.
measured.property: growth (%)
Write the number in % without appending the unit.

O=C(Cc1c(F)cccc1Cl)Nc1ccc(S(=O)(=O)Nc2ncccn2)cc1 = 111
CCC1=C[C@@H]2CN(C1)Cc1c([nH]c3ccccc13)[C@@](C(=O)OC)(c1cc3c(cc1OC)N(C=O)[C@H]1[C@@](O)(C(=O)OC)[C@H](OC(C)=O)[C@]4(CC)[C@@H]5C[C@@H]5CN5CC[C@]31[C@@H]54)C2 = 26.3

# return growth for `O=S(=O)(NCCCNc1cc(-c2cn(-c3ccccc3)nc2-c2cccc(O)c2)ccn1)c1ccc(C(F)(F)F)cc1` , test system: HS 578T breast
22.6

# return growth for `CN1CCN(CCCOc2ccc3nc(Nc4ccc(C(F)(F)F)c(Cl)c4)ccc3c2)CC1` , test system: HS 578T breast
16.3

---

Below is a list of entries, each paired with its recorded growth value.
# Tested on: U251 CNS
# assay.info: NCI-60 one-dose screen, 48 h (100 = growth as untreated, 0 = no growth, -100 = all killed)
# condition.summary: 10 µM unless noted
The panel holds about 83,000 compounds, 20% with a hit somewhere; the sample as a whole holds those more often. Active and inactive are the calls of the source. How the source made its calls: active means growth percent below 10; inactive means the rest.

Completed entries (count: 3):
COc1ccc(-n2c(C)cc(-c3ccccc3)c2C)cc1 = 43.5% (inactive)
COc1cc(CCn2nnc3c(Nc4ccc(N5CCOCC5)cc4)ncnc32)cc(OC)c1 = 95.6% (inactive)
C/C1=C\CCC2(C)OC2CC2CCC(C)(O)C(CC1)C2(C)C (stereo not given) = 91% (inactive)

# return growth for `O=C1N=C(c2c(-c3[nH]c(=O)c4ccc(Br)cc4c3O)c(O)c3ccccc3c2O)C(=O)c2cc(Br)ccc21` , test system: U251 CNS
-57.9% (active)

# return growth for `Nc1ccc(S(=O)(=O)c2ccc(Cl)cc2)cc1` , test system: U251 CNS
105% (inactive)

# return growth for `COc1ccccc1CNCCCN1C(=O)c2ccc3c4c(ccc(c24)C1=O)C(=O)N(CCCNCCCCNCCCCN)C3=O` , test system: U251 CNS
0.458% (active)

# return growth for `Clc1ccc(-c2nc(-c3ccco3)cn3ccnc23)cc1` , test system: U251 CNS
-51.3% (active)

# return growth for CC(=O)N1Cc2ccccc2C(C)Cc2cc(Cl)ccc21 (stereo not given) , test system: U251 CNS
105% (inactive)

# return growth for `NS(=O)(=O)c1ccc(NCC(=O)Nc2ccc(-c3nc4ccccc4s3)cc2)cc1` , test system: U251 CNS
71.3% (inactive)

# return growth for `COc1cc2c(cc1OCCCCn1c(-c3cc(=O)c4ccccc4o3)nc3ccccc31)N=C[C@@H]1CCCN1C2=O` , test system: U251 CNS
75.3% (inactive)
